Experiment Description: Solubility of Form I, Form IV, and Form V in buffers of different pH
Format: physicochemical
Setup Conditions: buffer, 37 °C, pH 4.5, aqueous buffer, thermodynamic from solid, buffer pH 4.5, shaken at 37° C. water bath for 0.5 hour
Measure Name: solubility at 0.5 hour (µg/mL)
State the answer as a number, implicitly in µg/mL.

Given item C[C@H](Nc1ncnc(N)c1C#N)c1cc2ncc(Cl)n2nc1-c1ccccc1 [Form I] , the value recorded as its solubility at 0.5 hour is 40

====

Experiment Description: Solubility of Form I, Form IV, and Form V in buffers of different pH
Assay type: physicochemical
Setup Conditions: buffer, 37 °C, pH 4.5, aqueous buffer, thermodynamic from solid, buffer pH 4.5, shaken at 37° C. water bath for 2 hours
Measure Name: solubility at 2 hours (µg/mL)
Response body: numeric value in µg/mL, unit text excluded.

Query C[C@H](Nc1ncnc(N)c1C#N)c1cc2ncc(Cl)n2nc1-c1ccccc1 [Form IV] yields solubility at 2 hours of 20

====

Experiment Description: Solubility of Form I, Form IV, and Form V in buffers of different pH
Format: physicochemical
Setup Conditions: buffer, 37 °C, pH 1.2, simulated gastric fluid, thermodynamic from solid, buffer pH 1.2, shaken at 37° C. water bath for 2 hours
Measure Name: solubility at 2 hours (µg/mL)
Write it as a number; the unit µg/mL goes unstated.

solubility at 2 hours in this record for C[C@H](Nc1ncnc(N)c1C#N)c1cc2ncc(Cl)n2nc1-c1ccccc1 [Form IV] : 8560

Source listed as patent US12180214B2.
